# Species on record: Homo sapiens
# protocolSummary: Liver toxicity in human assessed as induction of drug-induced liver injury by measuring verified drug-induced liver injury concern status
recordedMetric: DILI_Concern

compound: CC(=O)OCC(=O)[C@@]1(O)CC[C@H]2[C@@H]3CCC4=CC(=O)CC[C@]4(C)[C@H]3C(=O)C[C@@]21C [CORTISONE ACETATE]
DILI_Concern: No-Dili-Concern
//
compound: CC(C(=O)O)c1ccc(-c2ccccc2)c(F)c1 (stereo not drawn) [FLURBIPROFEN]
DILI_Concern: Ambiguous-Dili-Concern
//
compound: CN1[C@@H]2CC[C@H]1C[C@@H](OC(c1ccccc1)c1ccccc1)C2 [BENZTROPINE]
DILI_Concern: No-Dili-Concern
//
compound: COC(=O)[C@H]1[C@H]2C[C@@H]3c4[nH]c5cc(OC)ccc5c4CCN3C[C@H]2C[C@@H](OC(=O)c2cc(OC)c(OC)c(OC)c2)[C@@H]1OC [RESERPINE]
DILI_Concern: No-Dili-Concern
//
compound: CC1=C(C(=O)O)N2C(=O)[C@@H](NC(=O)[C@H](N)C3=CCC=CC3)[C@H]2SC1 [CEPHRADINE]
DILI_Concern: Ambiguous-Dili-Concern

QUERY: Entry CC(C)(C)NCC(O)COc1cccc2c1CC(O)C(O)C2 (stereo not drawn) [NADOLOL] has what DILI_Concern?
RESULT: Ambiguous-Dili-Concern

Values compiled from ChEMBL document CHEMBL4028802.
